# System: Mus musculus
# method notes: Evaluation of efficacy on systemic infections Escherichia coli HM-42, after oral administration in mice
# Assay type: functional
Below: a set of entries, each annotated with reported ED50.

# annotated cases, reported ED50 shown
{"sample smiles": "C[C@H]1[C@@H](N)CN1c1cc2c(cc1F)c(=O)c(C(=O)O)cn2C1CC1", "target or test system": "Mus musculus", "recorded metric": "ED50", "endpoint result": "20 mg/kg"}
{"sample smiles": "C[C@H]1[C@H](N)CN1c1cc2c(cc1F)c(=O)c(C(=O)O)cn2-c1ccc(F)cc1F", "target or test system": "Mus musculus", "recorded metric": "ED50", "endpoint result": "6 mg/kg"}
{"sample smiles": "O=C(O)c1cn(C2CC2)c2cc(N3CCNCC3)c(F)cc2c1=O", "target or test system": "Mus musculus", "recorded metric": "ED50", "endpoint result": "3 mg/kg"}
{"sample smiles": "C[C@@H]1[C@@H](CN)CN1c1c(F)cc2c(=O)c(C(=O)O)cn(C3CC3)c2c1F", "target or test system": "Mus musculus", "recorded metric": "ED50", "endpoint result": "31 mg/kg"}
{"sample smiles": "C[C@H]1[C@H](N)CN1c1c(F)cc2c(=O)c(C(=O)O)cn(-c3ccc(F)cc3)c2c1F", "target or test system": "Mus musculus", "recorded metric": "ED50", "endpoint result": "2.5 mg/kg"}

For record C[C@H]1[C@H](N)CN1c1cc2c(cc1F)c(=O)c(C(=O)O)cn2C1CC1 the listed ED50 is 3.5 mg/kg

For this molecule ( C[C@H]1[C@H](N)CN1c1nc2c(cc1F)c(=O)c(C(=O)O)cn2-c1ccc(F)cc1 ), measured ED50 is 3.1 mg/kg

For record C[C@H]1[C@H](N)CN1c1c(F)cc2c(=O)c(C(=O)O)cn(C3CC3)c2c1Cl the listed ED50 is 2.8 mg/kg

Memo: CCNC[C@H]1CN(c2cc3c(cc2F)c(=O)c(C(=O)O)cn3C2CC2)[C@@H]1C , reported ED50: 28.4 mg/kg

Lab note: measured ED50 of CCNC[C@H]1CN(c2c(F)cc3c(=O)c(C(=O)O)cn(C4CC4)c3c2F)[C@@H]1C was 4.7 mg/kg

C[C@H]1[C@H](N)CN1c1c(F)cc2c(=O)c(C(=O)O)cn(-c3ccc(F)cc3)c2c1Cl yielded ED50 of 3.6 mg/kg

So, CCn1cc(C(=O)O)c(=O)c2cc(F)c(N3C[C@@H](N)[C@@H]3C)c(F)c21 ? Its ED50 was 4 mg/kg

The molecule C[C@@H]1[C@@H](CN)CN1c1cc2c(cc1F)c(=O)c(C(=O)O)cn2C1CC1 showed ED50 equal to 60.5 mg/kg

The recorded ED50 for C[C@H]1[C@H](N)CN1c1c(F)cc2c(=O)c(C(=O)O)cn(C3CC3)c2c1F is 2 mg/kg

Quick note, ED50 for C[C@H]1[C@H](N)CN1c1c(F)cc2c(=O)c(C(=O)O)cn(-c3ccc(F)cc3F)c2c1Cl landed at 3.6 mg/kg

ED50 reported for this molecule C[C@H]1[C@@H](N)CN1c1c(F)cc2c(=O)c(C(=O)O)cn(C3CC3)c2c1F : 6.2 mg/kg

====

Entries and their MIC values follow.
# Tested on: Staphylococcus aureus
# method notes: In vitro minimum inhibitory concentration for Staphylococcus aureus ATCC 25178
# Format: functional
// return numeric value only (unit: µg/mL, not printed)

Use these answered entries as a reference point.
{"sample smiles": "CC[C@H]1[C@@H](N)CN1c1cc2c(cc1F)c(=O)c(C(=O)O)cn2C1CC1", "unit tag": "µg/mL", "MIC": 0.25}
{"sample smiles": "C[C@@H]1[C@@H](O)CN1c1cc2c(cc1F)c(=O)c(C(=O)O)cn2C1CC1", "unit tag": "µg/mL", "MIC": 0.12}
{"sample smiles": "C[C@H]1[C@H](N)CN1c1c(F)cc2c(=O)c(C(=O)O)cn3c2c1SCC3", "unit tag": "µg/mL", "MIC": 1}

Kindly note: Staphylococcus aureus, C[C@@H]1[C@@H](N(C)C)CN1c1cc2c(cc1F)c(=O)c(C(=O)O)cn2C1CC1 , MIC value reported: 0.25

O=C(O)c1cn(C2CC2)c2cc(N3CCNCC3)c(F)cc2c1=O on Staphylococcus aureus gives MIC = 0.25

====

# Tested on: Staphylococcus aureus
# method notes: In vitro minimum inhibitory concentration for Staphylococcus aureus ATCC 25178
# Assay type: functional
recorded metric: MIC (µg/mL)
Use µg/mL as the unit, but write only the number.

{"sample smiles": "C[C@H]1[C@H](N)CN1c1c(F)cc2c(=O)c(C(=O)O)cn(-c3ccc(F)cc3)c2c1F", "target or test system": "Staphylococcus aureus", "recorded metric": "MIC", "unit tag": "µg/mL", "endpoint result": 0.25}

Consider C[C@H]1[C@H](N)CN1c1cc2c(cc1F)c(=O)c(C(=O)O)cn2CCF . Its measured MIC is 1

For this molecule ( C[C@H]1[C@H](N)CN1c1cc2c(cc1F)c(=O)c(C(=O)O)cn2C1CC1 ), measured MIC is 0.12

The reported MIC of the molecule C[C@H]1[C@H](N)CN1c1c(F)cc2c(=O)c(C(=O)O)cn(-c3ccc(F)cc3F)c2c1Cl was 0.12

Record CCNC[C@H]1CN(c2cc3c(cc2F)c(=O)c(C(=O)O)cn3C2CC2)[C@@H]1C , field MIC: 0.5

====

# method notes: HPLC capacity factor (k')
# Type: ADME
Rule: measured Log k' below -0.02 gets Criterion met; anything equal to or greater than -0.02 gets Criterion not met.

Examples from the recorded data:
{"sample smiles": "C[C@H]1N(c2cc3c(cc2F)c(=O)c(C(=O)O)cn3C2CC2)C[C@]1(C)O", "discrete label": "Criterion not met"}
{"sample smiles": "CC1(O)CN(c2cc3c(cc2F)c(=O)c(C(=O)O)cn3C2CC2)C1", "discrete label": "Criterion not met"}
{"sample smiles": "C[C@H]1[C@@H](O)CN1c1c(F)cc2c(=O)c(C(=O)O)cn(C3CC3)c2c1F", "discrete label": "Criterion not met"}
{"sample smiles": "CCNCC1(C)CN(c2c(F)cc3c(=O)c(C(=O)O)cn(C4CC4)c3c2F)C1", "discrete label": "Criterion not met"}
{"sample smiles": "CC1(N)CN(c2cc3c(cc2F)c(=O)c(C(=O)O)cn3-c2ccc(F)cc2)C1", "discrete label": "Criterion met"}

# evaluate next
Q: A record lists CNC1CN(c2nc3c(cc2F)c(=O)c(C(=O)O)cn3C2CC2)C1 . Is its Log k' below -0.02?
Result: Criterion met

====

# Test system: Klebsiella pneumoniae
# method notes: In vitro minimum inhibitory concentration to inhibit Klebsiella pneumoniae ATCC 10031
# Format: functional
Examples of molecules with documented MIC follow.
Note: unit µg/mL is implicit; provide only the numeric part.

Answered examples (2):
{"sample smiles": "C[C@H]1[C@H](N)CN1c1nc2c(cc1F)c(=O)c(C(=O)O)cn2C(C)(C)C", "endpoint result": 0.015}
{"sample smiles": "C[C@H]1[C@@H](N)CN1c1c(F)cc2c(=O)c(C(=O)O)cn(C3CC3)c2c1F", "endpoint result": 0.12}

# MIC of CCNC[C@H]1CN(c2cc3c(cc2F)c(=O)c(C(=O)O)cn3C2CC2)[C@@H]1C = 0.06

Form field MIC, entry C[C@@H]1[C@@H](O)CN1c1cc2c(cc1F)c(=O)c(C(=O)O)cn2C1CC1 : 0.015

So, C[C@H]1[C@H](N)CN1c1c(F)cc2c(=O)c(C(=O)O)cn(-c3ccc(F)cc3)c2c1Cl ? Its MIC was 0.03

For record CN[C@H]1CN(c2c(F)cc3c(=O)c(C(=O)O)cn(C4CC4)c3c2F)[C@@H]1C the listed MIC is 0.03

Sure, the documented MIC for C[C@@H]1[C@@H](CN)CN1c1cc2c(cc1F)c(=O)c(C(=O)O)cn2C1CC1 is 0.06

Measured MIC, CC[C@H]1[C@@H](N)CN1c1cc2c(cc1F)c(=O)c(C(=O)O)cn2C1CC1 : 0.015

Sample C[C@H]1[C@@H](O)CN1c1cc2c(cc1F)c(=O)c(C(=O)O)cn2C1CC1 ; MIC observed: 0.25

====

# Test system: Enterococcus faecalis
# method notes: In vitro minimum inhibitory concentration for Streptococcus faecalis ATCC 10541
# Format: functional
recorded metric: log10(MIC) (log10 of the value in µg/mL)
Quick note: numbers are log10 of MIC, with µg/mL as the unit.

Examples with answers:
{"molecule": "C[C@H]1[C@H](N)CN1c1c(F)cc2c(=O)c(C(=O)O)cn(-c3ccc(F)cc3)c2c1F", "endpoint result": 0.30}
{"molecule": "C[C@H]1[C@H](N)CN1c1cc2c(cc1F)c(=O)c(C(=O)O)cn2-c1ccc(F)cc1F [CETEFLOXACIN]", "endpoint result": 0.00}
{"molecule": "C[C@H]1[C@H](N)CN1c1cc2c(cc1F)c(=O)c(C(=O)O)cn2C(C)(C)C", "endpoint result": -0.30}
{"molecule": "C[C@H]1[C@H](N)CN1c1c(F)cc2c(=O)c(C(=O)O)cn(C(C)(C)C)c2c1F", "endpoint result": -0.30}
{"molecule": "CC[C@H]1[C@@H](N)CN1c1c(F)cc2c(=O)c(C(=O)O)cn(C3CC3)c2c1F", "endpoint result": 0.30}
{"molecule": "C[C@@H]1[C@@H](N(C)C)CN1c1c(F)cc2c(=O)c(C(=O)O)cn(C3CC3)c2c1F", "endpoint result": 0.00}

// log10(MIC) lookup, molecule = CC[C@H]1[C@@H](O)CN1c1c(F)cc2c(=O)c(C(=O)O)cn(C3CC3)c2c1F , result: 0.90

For record C[C@@H]1[C@@H](CN)CN1c1cc2c(cc1F)c(=O)c(C(=O)O)cn2C1CC1 the listed log10(MIC) is 0.00

// sample CC[C@H]1[C@@H](O)CN1c1cc2c(cc1F)c(=O)c(C(=O)O)cn2C1CC1 , its log10(MIC) was 0.90

Form: molecule = C[C@H]1[C@H](N)CN1c1c(F)cc2c(=O)c(C(=O)O)cn(C3CC3)c2c1Cl ; log10(MIC) = -1.22

Reported log10(MIC) of C[C@H]1[C@H](N)CN1c1nc2c(cc1F)c(=O)c(C(=O)O)cn2CCF : 0.60

C[C@H]1[C@H](N)CN1c1c(F)cc2c(=O)c3c(=O)[nH]sc3n(C3CC3)c2c1F yielded log10(MIC) of -0.60

log10(MIC) reading for C[C@H]1[C@H](N)CN1c1cc2c(cc1F)c(=O)c1c(=O)[nH]sc1n2C1CC1 : -0.60

log10(MIC) reported for this molecule C[C@H]1[C@@H](N)CN1c1cc2c(cc1F)c(=O)c(C(=O)O)cn2C1CC1 : -0.30

// log10(MIC) value for CCn1cc(C(=O)O)c(=O)c2cc(F)c(N3C[C@@H](N)[C@@H]3C)cc21 : 0.30

C[C@H]1[C@H](N)CN1c1cc2c(cc1F)c(=O)c(C(=O)O)cn2-c1ccc(F)cc1 yielded log10(MIC) of -0.30

log10(MIC) measured on C[C@H]1[C@H](N)CN1c1c(F)cc2c(=O)c(C(=O)O)cn(CCF)c2c1Cl = -0.30

Entry CCn1cc(C(=O)O)c(=O)c2cc(F)c(N3C[C@@H](N)[C@@H]3C)c(Cl)c21 — recorded log10(MIC) = -0.30
